The compounds listed here are annotated with their remaining at 1 h, 10 µM.
test: Metabolic stability in human intestine S9 fraction assessed as compound remaining at 10 uM after 60 mins by HPLC analysis in absence of NADP; format: ADME, tissue-based; details: read-out: Stability
Answer shape: numeric part, then the unit.

Consider the reported remaining at 1 h, 10 µM for these compounds:
INSERT INTO results (compound, endpoint_result) VALUES
  ('CC[C@H](C)[C@H](NP(=O)(OC[C@H]1O[C@@H](n2cnc3c(=O)[nH]c(N)nc32)[C@](C)(O)[C@@H]1O)Oc1cccc2ccccc12)C(=O)OCc1ccccc1 (some centres not stated)', '74%'),
  ('CC(C)OC(=O)[C@H](C)NP(=O)(OC[C@H]1O[C@@H](n2cnc3c(=O)[nH]c(N)nc32)[C@](C)(O)[C@@H]1O)Oc1cccc2ccccc12 (some centres not stated)', '85%'),
  ('C[C@H](NP(=O)(OC[C@H]1O[C@@H](n2cnc3c(=O)[nH]c(N)nc32)[C@](C)(O)[C@@H]1O)Oc1ccc2ccccc2c1)C(=O)OCc1ccccc1 (some centres not stated)', '23%'),
  ('C[C@H](NP(=O)(OC[C@H]1O[C@@H](n2cnc3c(=O)[nH]c(N)nc32)[C@](C)(O)[C@@H]1O)Oc1cccc2ccccc12)C(=O)OCC(C)(C)C (some centres not stated)', '49%'),
  ('COC(=O)[C@H](C)NP(=O)(OC[C@H]1O[C@@H](n2cnc3c(=O)[nH]c(N)nc32)[C@](C)(O)[C@@H]1O)Oc1cccc2ccccc12 (some centres not stated)', '63%'),
  ('COC(=O)[C@H](CCSC)NP(=O)(OC[C@H]1O[C@@H](n2cnc3c(=O)[nH]c(N)nc32)[C@](C)(O)[C@@H]1O)Oc1cccc2ccccc12 (some centres not stated)', '27%');

Turning now to a further compound:
Ask: Give me measured remaining at 1 h, 10 µM, please, for this compound: CC(C)[C@H](NP(=O)(OC[C@H]1O[C@@H](n2cnc3c(=O)[nH]c(N)nc32)[C@](C)(O)[C@@H]1O)Oc1cccc2ccccc12)C(=O)OCc1ccccc1 (some centres not stated)
Result: 70%

====

assay: Metabolic stability in rat plasma assessed as compound remaining at 1 ug/ml after 4 hrs; type: ADME, cell-free; settings: read-out: Stability
QUANTITY: remaining at 4 h, 1 ug/ml (%)
Value expressed in %; do not type the unit.

Consider the reported remaining at 4 h, 1 ug/ml for these compounds:
INSERT INTO results (compound, endpoint_result) VALUES
  ('CC(C)(NP(=O)(OC[C@H]1O[C@@H](n2cnc3c(=O)[nH]c(N)nc32)[C@](C)(O)[C@@H]1O)Oc1cccc2ccccc12)C(=O)OCc1ccccc1 (some centres undefined)', 0),
  ('CSCC[C@H](NP(=O)(OC[C@H]1O[C@@H](n2cnc3c(=O)[nH]c(N)nc32)[C@](C)(O)[C@@H]1O)Oc1cccc2ccccc12)C(=O)OC(C)C (some centres undefined)', 0.5),
  ('CC(OC(=O)[C@H](C)NP(=O)(OC[C@H]1O[C@@H](n2cnc3c(=O)[nH]c(N)nc32)[C@](C)(O)[C@@H]1O)Oc1cccc2ccccc12)c1ccccc1 (mixture of isomers)', 0.3);

Ask: Give me measured remaining at 4 h, 1 ug/ml, please, for this compound: CC(C)[C@H](NP(=O)(OC[C@H]1O[C@@H](n2cnc3c(=O)[nH]c(N)nc32)[C@](C)(O)[C@@H]1O)Oc1ccc2ccccc2c1)C(=O)OCc1ccccc1 (some centres undefined)
Result: 22

Ask: Give me measured remaining at 4 h, 1 ug/ml, please, for this compound: C[C@H](NP(=O)(OC[C@H]1O[C@@H](n2cnc3c(=O)[nH]c(N)nc32)[C@](C)(O)[C@@H]1O)Oc1cccc2ccccc12)C(=O)O[C@@H](C)c1ccccc1 (some centres undefined)
Result: 0

Ask: Give me measured remaining at 4 h, 1 ug/ml, please, for this compound: C[C@H](NP(=O)(OC[C@H]1O[C@@H](n2cnc3c(=O)[nH]c(N)nc32)[C@](C)(O)[C@@H]1O)Oc1cccc2ccccc12)C(=O)OC1CCCCC1 (some centres undefined)
Result: 0.5

Ask: Give me measured remaining at 4 h, 1 ug/ml, please, for this compound: CC(C)[C@@H](NP(=O)(OC[C@H]1O[C@@H](n2cnc3c(=O)[nH]c(N)nc32)[C@](C)(O)[C@@H]1O)Oc1cccc2ccccc12)C(=O)OCc1ccccc1 (some centres undefined)
Result: 56

Ask: Give me measured remaining at 4 h, 1 ug/ml, please, for this compound: CCCCCOC(=O)[C@H](C)NP(=O)(OC[C@H]1O[C@@H](n2cnc3c(=O)[nH]c(N)nc32)[C@](C)(O)[C@@H]1O)Oc1cccc2ccccc12 (some centres undefined)
Result: 0

Ask: Give me measured remaining at 4 h, 1 ug/ml, please, for this compound: CCCCOC(=O)[C@H](C)NP(=O)(OC[C@H]1O[C@@H](n2cnc3c(=O)[nH]c(N)nc32)[C@](C)(O)[C@@H]1O)Oc1cccc2ccccc12 (some centres undefined)
Result: 0
